molecular target: UniProtKB P23443; experiment: Kinase selectivity, Mobility shift assay; assay type: biochemical
measured attribute: IC50

mol: Nc1ccc(-c2ccc3ncc4c(=O)[nH]c(=O)n(-c5cccc(C(F)(F)F)c5)c4c3n2)cn1
result: > 10000 nM

====

target: MAPKAPK2 (Homo sapiens (Human), UniProt P49137); assay: Kinase selectivity, Mobility shift assay; format: biochemical

compound: Nc1ccc(-c2ccc3ncc4c(=O)[nH]c(=O)n(-c5cccc(C(F)(F)F)c5)c4c3n2)cn1 [Compound 5]
IC50: > 10000 nM

====

biological target: JAK2 (Homo sapiens (Human), UniProt O60674); experiment: Kinase selectivity, Mobility shift assay; assay type: biochemical
Sequence (O60674 whole entry, species assumed): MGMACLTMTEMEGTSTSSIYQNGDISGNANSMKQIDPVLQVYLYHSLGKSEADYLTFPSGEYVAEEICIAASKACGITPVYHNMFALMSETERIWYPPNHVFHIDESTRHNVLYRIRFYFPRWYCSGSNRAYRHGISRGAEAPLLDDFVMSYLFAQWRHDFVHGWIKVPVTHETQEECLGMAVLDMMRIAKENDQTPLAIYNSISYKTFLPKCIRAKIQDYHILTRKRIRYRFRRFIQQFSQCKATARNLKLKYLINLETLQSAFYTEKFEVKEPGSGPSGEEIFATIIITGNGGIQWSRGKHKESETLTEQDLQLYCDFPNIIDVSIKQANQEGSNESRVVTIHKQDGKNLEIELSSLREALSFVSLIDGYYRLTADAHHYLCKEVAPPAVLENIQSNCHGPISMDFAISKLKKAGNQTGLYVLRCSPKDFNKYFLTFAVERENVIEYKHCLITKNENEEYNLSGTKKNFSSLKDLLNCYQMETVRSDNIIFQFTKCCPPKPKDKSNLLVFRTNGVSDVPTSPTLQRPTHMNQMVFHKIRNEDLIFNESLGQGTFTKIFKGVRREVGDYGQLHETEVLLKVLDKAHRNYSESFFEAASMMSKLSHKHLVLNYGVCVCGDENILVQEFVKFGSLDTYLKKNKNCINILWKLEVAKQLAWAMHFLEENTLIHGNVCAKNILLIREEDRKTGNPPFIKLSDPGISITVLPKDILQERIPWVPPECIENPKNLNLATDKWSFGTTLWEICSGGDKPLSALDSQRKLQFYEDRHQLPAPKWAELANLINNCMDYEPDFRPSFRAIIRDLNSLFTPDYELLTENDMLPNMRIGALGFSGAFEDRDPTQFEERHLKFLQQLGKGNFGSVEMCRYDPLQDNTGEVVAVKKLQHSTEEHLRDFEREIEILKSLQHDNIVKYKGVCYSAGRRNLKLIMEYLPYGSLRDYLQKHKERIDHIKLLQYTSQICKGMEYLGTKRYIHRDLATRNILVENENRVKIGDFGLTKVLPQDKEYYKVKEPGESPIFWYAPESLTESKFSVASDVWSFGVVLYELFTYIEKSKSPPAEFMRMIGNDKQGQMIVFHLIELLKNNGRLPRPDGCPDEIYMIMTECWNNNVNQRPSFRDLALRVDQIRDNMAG

mol: Nc1ccc(-c2ccc3ncc4c(=O)[nH]c(=O)n(-c5cccc(C(F)(F)F)c5)c4c3n2)cn1
test system: JAK2 (Homo sapiens (Human), UniProt O60674)
IC50: > 10000 nM

====

assay: In vivo pharmacokinetics assay in rat; conditions: male, SD, plasma, oral, rats, P.O, 4 mg/kg

mol: Cn1c(=O)c2cnc3ccc(-c4ccc(N)nc4)nc3c2n(-c2cccc(C(F)(F)F)c2)c1=O
AUC(0-inf): 10.3 µg·h/mL

====

experiment: In vivo pharmacokinetics assay in rat; details: male, SD, plasma, intravenous, rats, I.V, 2 mg/kg
Counter-ions that a name gives are not always drawn.
Item-by-item account of AUC(0-t)

compound: Cn1c(=O)c2cnc3ccc(-c4ccc(N)nc4)nc3c2n(-c2cccc(C(F)(F)F)c2)c1=O
AUC(0-t): 4450 ng·h/mL
//
compound: O=c1[nH]c(=O)n(-c2cccc(C(F)(F)F)c2)c2c1cnc1ccc(-c3cnc4[nH]ccc4c3)nc12 [Compound 30 hydrochloride]
AUC(0-t): 1680 ng·h/mL

====

molecular target: BRAF V600E (Homo sapiens (Human), UniProt P15056, V600E); assay: Kinase selectivity, Lanthascreen analysis method; assay type: biochemical
measured attribute: IC50

mol: Nc1ccc(-c2ccc3ncc4c(=O)[nH]c(=O)n(-c5cccc(C(F)(F)F)c5)c4c3n2)cn1
measured attribute: IC50
result: > 10000 nM

====

molecular target: PKACa (Homo sapiens (Human), UniProt P17612); assay: Kinase selectivity, Mobility shift assay; type: biochemical

molecule: Nc1ccc(-c2ccc3ncc4c(=O)[nH]c(=O)n(-c5cccc(C(F)(F)F)c5)c4c3n2)cn1 [Compound 5]
IC50: > 10000 nM

====

target: Tie2 (Homo sapiens (Human), UniProt Q02763); test: Kinase selectivity, Mobility shift assay; type: biochemical
measured attribute: IC50 (nM)

compound: Nc1ccc(-c2ccc3ncc4c(=O)[nH]c(=O)n(-c5cccc(C(F)(F)F)c5)c4c3n2)cn1 [Compound 5]
quantitative readout: 2430

====

Item-by-item account of Vd
experiment: In vivo pharmacokinetics assay in rat; details: male, SD, plasma, intravenous, rats, I.V, 2 mg/kg, read-out: Vss
Counter-ions that a name gives are not always drawn.

compound: O=c1[nH]c(=O)n(-c2cccc(C(F)(F)F)c2)c2c1cnc1ccc(-c3cnc4[nH]ccc4c3)nc12 [Compound 30 hydrochloride]
Vd: 2.49 L/kg

compound: Cn1c(=O)c2cnc3ccc(-c4ccc(N)nc4)nc3c2n(-c2cccc(C(F)(F)F)c2)c1=O
Vd: 1.95 L/kg

====

target: TAOK2 (Homo sapiens (Human), UniProt Q9UL54); assay: Kinase selectivity, Mobility shift assay; assay type: biochemical

mol: Nc1ccc(-c2ccc3ncc4c(=O)[nH]c(=O)n(-c5cccc(C(F)(F)F)c5)c4c3n2)cn1
IC50: > 10000 nM

====

target: IGF1R (Homo sapiens (Human)); assay: Kinase selectivity, Mobility shift assay; format: biochemical
measured attribute: IC50

compound: Nc1ccc(-c2ccc3ncc4c(=O)[nH]c(=O)n(-c5cccc(C(F)(F)F)c5)c4c3n2)cn1 [Compound 5]
result: > 10000 nM

====

molecular target: SGK (Homo sapiens (Human)); assay: Kinase selectivity, Mobility shift assay; format: biochemical
Sequence (O00141 whole entry, species assumed): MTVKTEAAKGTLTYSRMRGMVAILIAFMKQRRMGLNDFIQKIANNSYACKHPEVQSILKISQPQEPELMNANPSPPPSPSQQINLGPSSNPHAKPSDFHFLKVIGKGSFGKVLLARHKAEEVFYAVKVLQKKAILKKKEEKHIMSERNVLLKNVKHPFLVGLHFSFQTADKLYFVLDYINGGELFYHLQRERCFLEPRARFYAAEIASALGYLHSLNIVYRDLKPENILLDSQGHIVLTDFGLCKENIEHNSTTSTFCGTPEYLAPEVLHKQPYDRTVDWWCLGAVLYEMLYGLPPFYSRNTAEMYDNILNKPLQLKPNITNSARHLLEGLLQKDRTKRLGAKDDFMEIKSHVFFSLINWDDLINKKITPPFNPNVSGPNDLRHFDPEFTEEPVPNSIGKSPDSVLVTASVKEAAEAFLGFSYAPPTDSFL
measured attribute: IC50

mol: Nc1ccc(-c2ccc3ncc4c(=O)[nH]c(=O)n(-c5cccc(C(F)(F)F)c5)c4c3n2)cn1
result: > 10000 nM

====

target: FGFR1 (Homo sapiens (Human), UniProt P11362); assay: Kinase selectivity, Mobility shift assay; format: biochemical
measured attribute: IC50

mol: Nc1ccc(-c2ccc3ncc4c(=O)[nH]c(=O)n(-c5cccc(C(F)(F)F)c5)c4c3n2)cn1
test system: FGFR1 (Homo sapiens (Human), UniProt P11362)
result: > 10000 nM

====

target: CDK2 (Homo sapiens (Human)); experiment: Kinase selectivity, Mobility shift assay; format: biochemical
measured attribute: IC50

mol: Nc1ccc(-c2ccc3ncc4c(=O)[nH]c(=O)n(-c5cccc(C(F)(F)F)c5)c4c3n2)cn1
test system: CDK2 (Homo sapiens (Human))
result: > 10000 nM

====

experiment: In vivo pharmacokinetics assay in rat; details: male, SD, plasma, po, rats, P.O, 4 mg/kg
Item-by-item account of AUC(0-t)

mol: Nc1ccc(-c2ccc3ncc4c(=O)[nH]c(=O)n(-c5cccc(C(F)(F)F)c5)c4c3n2)cn1
AUC(0-t) [ng·h/mL]: 2550
--
mol: O=c1[nH]c(=O)n(-c2cccc(C(F)(F)F)c2)c2c1cnc1ccc(-c3cnc4[nH]ccc4c3)nc12
AUC(0-t) [ng·h/mL]: 654

====

experiment: In vivo pharmacokinetics assay in rat; conditions: male, SD, plasma, oral, rats, P.O, 4 mg/kg

mol: Cn1c(=O)c2cnc3ccc(-c4ccc(N)nc4)nc3c2n(-c2cccc(C(F)(F)F)c2)c1=O
AUC(0-t) (ng·h/mL): 10200

====

experiment: In vivo pharmacokinetics assay in rat; conditions: male, SD, plasma, oral, rats, P.O, 4 mg/kg

mol: Cn1c(=O)c2cnc3ccc(-c4ccc(N)nc4)nc3c2n(-c2cccc(C(F)(F)F)c2)c1=O
output unit: h
half-life: 3.92

====

molecular target: PI3Kα (Homo sapiens (Human), UniProt P42336)
Sequence (P42336 whole entry): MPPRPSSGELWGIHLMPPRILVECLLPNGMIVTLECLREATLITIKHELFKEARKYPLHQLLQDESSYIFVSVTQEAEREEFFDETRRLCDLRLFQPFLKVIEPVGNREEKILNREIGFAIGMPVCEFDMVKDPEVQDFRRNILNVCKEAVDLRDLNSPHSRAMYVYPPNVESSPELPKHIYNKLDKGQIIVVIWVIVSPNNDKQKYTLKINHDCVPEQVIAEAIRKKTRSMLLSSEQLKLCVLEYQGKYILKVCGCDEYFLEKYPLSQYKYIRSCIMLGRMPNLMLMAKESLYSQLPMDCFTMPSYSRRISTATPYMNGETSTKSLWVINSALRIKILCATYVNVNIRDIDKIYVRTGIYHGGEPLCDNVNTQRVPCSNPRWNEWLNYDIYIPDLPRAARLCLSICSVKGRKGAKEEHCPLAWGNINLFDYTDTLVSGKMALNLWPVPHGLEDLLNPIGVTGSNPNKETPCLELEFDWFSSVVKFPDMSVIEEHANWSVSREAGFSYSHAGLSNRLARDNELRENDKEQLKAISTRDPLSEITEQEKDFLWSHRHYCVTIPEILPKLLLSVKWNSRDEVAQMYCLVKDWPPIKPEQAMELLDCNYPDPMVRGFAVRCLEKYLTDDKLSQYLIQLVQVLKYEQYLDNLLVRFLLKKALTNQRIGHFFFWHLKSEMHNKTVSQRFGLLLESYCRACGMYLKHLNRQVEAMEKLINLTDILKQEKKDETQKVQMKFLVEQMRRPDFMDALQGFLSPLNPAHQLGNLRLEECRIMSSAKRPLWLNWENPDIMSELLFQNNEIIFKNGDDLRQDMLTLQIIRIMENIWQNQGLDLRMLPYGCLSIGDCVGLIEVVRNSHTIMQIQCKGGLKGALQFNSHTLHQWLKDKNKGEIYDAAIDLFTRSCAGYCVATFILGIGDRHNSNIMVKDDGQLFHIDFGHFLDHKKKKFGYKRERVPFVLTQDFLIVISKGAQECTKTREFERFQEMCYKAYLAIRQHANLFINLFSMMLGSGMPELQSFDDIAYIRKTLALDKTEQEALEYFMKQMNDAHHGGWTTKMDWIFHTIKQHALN
Sequence (P27986 whole entry partner): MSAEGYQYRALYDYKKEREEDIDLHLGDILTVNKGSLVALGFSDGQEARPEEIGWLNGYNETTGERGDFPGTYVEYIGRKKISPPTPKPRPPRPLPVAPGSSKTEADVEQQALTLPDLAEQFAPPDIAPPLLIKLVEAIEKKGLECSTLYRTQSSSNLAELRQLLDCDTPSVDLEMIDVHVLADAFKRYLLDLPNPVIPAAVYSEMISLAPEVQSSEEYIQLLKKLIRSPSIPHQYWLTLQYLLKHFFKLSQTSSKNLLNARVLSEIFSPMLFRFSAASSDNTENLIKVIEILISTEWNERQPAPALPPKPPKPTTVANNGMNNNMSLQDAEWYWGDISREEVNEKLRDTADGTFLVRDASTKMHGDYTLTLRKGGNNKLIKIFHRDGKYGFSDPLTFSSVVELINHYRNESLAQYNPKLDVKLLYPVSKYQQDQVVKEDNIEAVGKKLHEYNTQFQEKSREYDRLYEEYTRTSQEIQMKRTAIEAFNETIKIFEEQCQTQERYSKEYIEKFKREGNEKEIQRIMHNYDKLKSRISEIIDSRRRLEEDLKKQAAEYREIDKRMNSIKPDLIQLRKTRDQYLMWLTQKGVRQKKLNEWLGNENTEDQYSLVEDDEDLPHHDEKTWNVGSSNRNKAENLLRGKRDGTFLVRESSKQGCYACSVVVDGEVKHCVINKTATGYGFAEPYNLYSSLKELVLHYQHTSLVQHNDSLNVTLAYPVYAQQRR
pIC50: −log10 of the molar value.
Item-by-item account of pIC50
measured attribute: pIC50

mol: COc1ncc(-c2ccc3ncc4c(=O)[nH]c(=O)n(-c5cccc(C(F)(F)F)c5)c4c3n2)cn1
quantitative readout: 7.39
--
mol: O=c1[nH]c(=O)n(-c2cccc(C(F)(F)F)c2)c2c1cnc1ccc(-c3cnc4[nH]ccc4c3)nc12
quantitative readout: 7.82

====

target: UniProt P10721; experiment: Kinase selectivity, Mobility shift assay; assay type: biochemical

mol: Nc1ccc(-c2ccc3ncc4c(=O)[nH]c(=O)n(-c5cccc(C(F)(F)F)c5)c4c3n2)cn1
IC50: > 10000 nM

====

target: IRAK4 (Homo sapiens (Human)); experiment: Kinase selectivity, Mobility shift assay; type: biochemical

mol: Nc1ccc(-c2ccc3ncc4c(=O)[nH]c(=O)n(-c5cccc(C(F)(F)F)c5)c4c3n2)cn1
IC50: > 10000 nM

====

biological target: LCK (Homo sapiens (Human), UniProt P06239); assay: Kinase selectivity, Mobility shift assay; format: biochemical

compound: Nc1ccc(-c2ccc3ncc4c(=O)[nH]c(=O)n(-c5cccc(C(F)(F)F)c5)c4c3n2)cn1 [Compound 5]
output unit: nM
IC50: 1130

====

biological target: JNK2 (Homo sapiens (Human)); experiment: Kinase selectivity, Mobility shift assay; format: biochemical
Sequence (P45984 whole entry, species assumed): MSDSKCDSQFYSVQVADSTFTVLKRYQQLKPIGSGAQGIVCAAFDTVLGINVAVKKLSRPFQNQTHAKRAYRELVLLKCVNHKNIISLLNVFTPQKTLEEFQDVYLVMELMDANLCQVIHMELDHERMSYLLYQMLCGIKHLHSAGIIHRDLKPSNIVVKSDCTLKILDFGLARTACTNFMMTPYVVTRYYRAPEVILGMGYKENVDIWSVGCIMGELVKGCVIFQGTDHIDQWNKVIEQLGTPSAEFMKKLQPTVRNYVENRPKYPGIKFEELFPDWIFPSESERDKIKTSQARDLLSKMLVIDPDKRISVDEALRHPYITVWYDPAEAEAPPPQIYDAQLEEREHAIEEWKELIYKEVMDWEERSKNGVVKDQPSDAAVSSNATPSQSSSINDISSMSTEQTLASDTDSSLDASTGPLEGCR
measured attribute: IC50

mol: Nc1ccc(-c2ccc3ncc4c(=O)[nH]c(=O)n(-c5cccc(C(F)(F)F)c5)c4c3n2)cn1
result: > 10000 nM

====

Item-by-item account of AUC(0-t)
assay: In vivo pharmacokinetics assay in rat; settings: male, SD, plasma, iv, rats, I.V, 2 mg/kg

mol: O=c1[nH]c(=O)n(-c2cccc(C(F)(F)F)c2)c2c1cnc1ccc(-c3cnc4[nH]ccc4c3)nc12
AUC(0-t) (ng·h/mL): 3050
--
mol: Nc1ccc(-c2ccc3ncc4c(=O)[nH]c(=O)n(-c5cccc(C(F)(F)F)c5)c4c3n2)cn1
AUC(0-t) (ng·h/mL): 9130

====

target: ZAP70 (Homo sapiens (Human), UniProt P43403); test: Kinase selectivity, Mobility shift assay; type: biochemical
measured attribute: IC50

compound: Nc1ccc(-c2ccc3ncc4c(=O)[nH]c(=O)n(-c5cccc(C(F)(F)F)c5)c4c3n2)cn1 [Compound 5]
result: > 10000 nM

====

target: ROCK2 (Homo sapiens (Human)); assay: Kinase selectivity, Mobility shift assay; assay type: biochemical
measured attribute: IC50

compound: Nc1ccc(-c2ccc3ncc4c(=O)[nH]c(=O)n(-c5cccc(C(F)(F)F)c5)c4c3n2)cn1 [Compound 5]
measured attribute: IC50
result: > 10000 nM

====

molecular target: LYNa (Homo sapiens (Human)); assay: Kinase selectivity, Mobility shift assay; type: biochemical

molecule: Nc1ccc(-c2ccc3ncc4c(=O)[nH]c(=O)n(-c5cccc(C(F)(F)F)c5)c4c3n2)cn1 [Compound 5]
output unit: nM
IC50: 1370

====

biological target: ABL (Homo sapiens (Human)); assay: Kinase selectivity, Mobility shift assay; format: biochemical
Sequence (P00519 whole entry, species assumed): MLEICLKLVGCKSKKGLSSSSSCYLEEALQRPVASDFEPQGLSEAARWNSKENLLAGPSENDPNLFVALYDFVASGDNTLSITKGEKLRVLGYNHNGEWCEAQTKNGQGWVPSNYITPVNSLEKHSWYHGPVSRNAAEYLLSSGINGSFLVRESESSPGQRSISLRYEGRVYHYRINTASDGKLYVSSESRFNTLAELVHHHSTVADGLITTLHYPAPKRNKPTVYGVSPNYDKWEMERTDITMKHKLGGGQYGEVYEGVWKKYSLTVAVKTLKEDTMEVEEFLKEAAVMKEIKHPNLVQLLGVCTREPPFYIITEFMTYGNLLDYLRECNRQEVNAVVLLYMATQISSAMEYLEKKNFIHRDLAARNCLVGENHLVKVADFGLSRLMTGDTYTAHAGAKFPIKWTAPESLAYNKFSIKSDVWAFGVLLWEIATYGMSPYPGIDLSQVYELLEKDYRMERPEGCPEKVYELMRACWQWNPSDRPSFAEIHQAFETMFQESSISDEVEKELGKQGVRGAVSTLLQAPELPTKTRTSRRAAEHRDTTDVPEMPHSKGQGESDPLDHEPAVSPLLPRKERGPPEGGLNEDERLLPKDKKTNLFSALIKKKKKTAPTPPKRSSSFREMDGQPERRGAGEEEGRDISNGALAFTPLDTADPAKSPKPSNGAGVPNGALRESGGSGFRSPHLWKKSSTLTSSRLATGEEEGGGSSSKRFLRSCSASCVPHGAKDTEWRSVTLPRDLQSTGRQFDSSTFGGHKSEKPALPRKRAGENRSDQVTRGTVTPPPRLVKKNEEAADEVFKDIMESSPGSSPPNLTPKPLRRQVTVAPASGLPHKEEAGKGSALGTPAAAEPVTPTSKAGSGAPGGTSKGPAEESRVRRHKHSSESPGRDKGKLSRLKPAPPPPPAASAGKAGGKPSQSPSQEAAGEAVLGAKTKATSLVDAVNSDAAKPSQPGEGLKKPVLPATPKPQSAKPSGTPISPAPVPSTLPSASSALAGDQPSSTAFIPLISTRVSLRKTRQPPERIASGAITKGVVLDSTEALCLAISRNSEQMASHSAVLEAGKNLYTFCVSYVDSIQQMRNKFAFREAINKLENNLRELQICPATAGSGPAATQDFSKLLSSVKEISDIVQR
measured attribute: IC50

mol: Nc1ccc(-c2ccc3ncc4c(=O)[nH]c(=O)n(-c5cccc(C(F)(F)F)c5)c4c3n2)cn1
result: > 10000 nM
